Test system: NCI-H292 lung cancer cells
measurementNotes: FDA drug screening, complete media vs cholesterol-free media with simvastatin (TABLE 2)
Assay type: cell-based, human
experimentalConditions: complete media vs cholesterol-free media + simvastatin (0.04 μM); >0 enhanced anti-cancer activity, about 0 neutral, <0 antagonist
Where a name gives a salt, the structure may show the parent alone.
Difference listing for selected molecules.

Worked set:
O=C(O)c1cc(O)c(O)c(O)c1 : −0.48
COc1ccc2cc(CCC(C)=O)ccc2c1 : −0.41
O=C(CCBr)N1CCN(C(=O)CCBr)CC1 : −0.33
O=C(O)COCCN1CCN([C@H](c2ccccc2)c2ccc(Cl)cc2)CC1 [Levocetirizine (dihydrochloride)] : −0.26
NC(CO)(CO)CO.O=C(c1ccccc1)c1ccc2n1CCC2C(=O)O (stereo not shown) [Ketorolac (tromethamine salt)] : −0.17

Return Difference measured with NCI-H292 lung cancer cells given this molecule: Cc1cc(=O)oc2cc(O)ccc12 −0.07

Return Difference measured with NCI-H292 lung cancer cells given this molecule: CCn1cc(C(=O)O)c(=O)c2cc(F)c(N3CCNCC3)cc21 −0.30

Return Difference measured with NCI-H292 lung cancer cells given this molecule: CO/N=C(\C(=O)N[C@@H]1C(=O)N2C(C(=O)O)=CCS[C@H]12)c1csc(N)n1 −0.18

Return Difference measured with NCI-H292 lung cancer cells given this molecule: Cc1ccc(=O)n(-c2ccccc2)c1 −0.33

Return Difference measured with NCI-H292 lung cancer cells given this molecule: Cc1cccc(C)c1NC(=O)C(C)N (stereo not shown) [Tocainide (hydrochloride)] −0.25

Return Difference measured with NCI-H292 lung cancer cells given this molecule: CS(=O)(=O)c1ccc(C2=C(c3ccccc3)C(=O)OC2)cc1 −0.11

Return Difference measured with NCI-H292 lung cancer cells given this molecule: CCCCCOC(=O)Nc1nc(=O)n([C@@H]2O[C@H](C)[C@@H](O)[C@H]2O)cc1F −0.59

Return Difference measured with NCI-H292 lung cancer cells given this molecule: CN(C)CCC=C1c2ccccc2CCc2ccccc21 [Amitriptyline (hydrochloride)] −0.14

Return Difference measured with NCI-H292 lung cancer cells given this molecule: O=C(/C=C/c1cccc(S(=O)(=O)Nc2ccccc2)c1)NO −0.09

Return Difference measured with NCI-H292 lung cancer cells given this molecule: C=CCc1cc(OC)c(O)c(C(=O)NCCO)c1 [Alibendol] −0.07

Return Difference measured with NCI-H292 lung cancer cells given this molecule: NCC(=O)O −0.27

Return Difference measured with NCI-H292 lung cancer cells given this molecule: C[C@H](CCC(=O)O)[C@H]1CC[C@H]2[C@@H]3[C@@H](O)C[C@@H]4C[C@H](O)CC[C@]4(C)[C@H]3CC[C@]12C −0.10

Return Difference measured with NCI-H292 lung cancer cells given this molecule: CCCOC(=O)c1cc(O)c(O)c(O)c1 [Propyl gallate] −0.17

Return Difference measured with NCI-H292 lung cancer cells given this molecule: COC(=O)C1=C(C)NC(C)=C(C(=O)OCCN(C)Cc2ccccc2)C1c1cccc([N+](=O)[O-])c1 (stereo not shown) [Nicardipine (hydrochloride)] −0.47

###

Complete Media listing for selected compounds.
Tested on: NCI-H292 lung cancer cells
measurementNotes: FDA drug screening, complete media vs cholesterol-free media with simvastatin (TABLE 2)
Assay type: cell-based, human
experimentalConditions: NCI-H292 cells, complete media; […]
Where a name gives a salt, the structure may show the parent alone.

Worked set:
COc1ccccc1OC(=O)c1ccccc1OC(C)=O : 1.4
CCCCCCCCCCCCCCCC[n+]1ccccc1.O.[Cl-] [Cetylpyridinium (chloride monohydrate)] : 0.2714
CC(C)[C@H](N)C(=O)O : 0.8676
COc1ccc2c3c1O[C@H]1C[C@@H](O)C=C[C@@]31CCN(C)C2 [Galanthamine (hydrobromide)] : 1.432
COC(=O)c1cccc(CCN(C)CCC[C@@](C#N)(c2ccc(OC)c(OC)c2)C(C)C)c1 : 0.8724
COc1ccnc(C[S+]([O-])c2nc3cc(OC(F)F)ccc3[n-]2)c1OC.[Na+] (stereo not shown) [Pantoprazole (sodium)] : 1.781

Consider the record given below.
For COc1cc(C)c(/C=C/C(C)=C/C=C/C(C)=C/C(=O)O)c(C)c1C , what is its reported Complete Media? 0.76

###

Test system: NCI-H292 lung cancer cells
measurementNotes: FDA drug screening, complete media vs cholesterol-free media with simvastatin (TABLE 2)
Assay type: cell-based, human
experimentalConditions: NCI-H292 cells, drug in cholesterol-free media with simvastatin 0.04 μM
metricName: Cholesterol-free media + simvastatin (0.04 μM)
API note: the answer field is a bare number with no unit suffix.

CC1(C)S[C@@H]2[C@H](NC(=O)C(c3ccccc3)S(=O)(=O)O)C(=O)N2[C@H]1C(=O)O (some centres unmarked) [Sulbenicillin (disodium)] : 1.164
CC(=O)OCC[N+](C)(C)C.[I-] [Acetylcholine (iodide)] : 1.762

For CNCCc1ccccn1 , what is its reported Cholesterol-free media + simvastatin (0.04 μM)? 1.266

For CC(=O)N[C@@H](CS)C(=O)O , what is its reported Cholesterol-free media + simvastatin (0.04 μM)? 1.145

For Cn1c(=O)c2c(ncn2CC(O)CO)n(C)c1=O (centres unmarked) , what is its reported Cholesterol-free media + simvastatin (0.04 μM)? 1.247

###

Test system: NCI-H292 lung cancer cells
measurementNotes: FDA drug screening, complete media vs cholesterol-free media without statin (TABLE 1)
Type: cell-based, human
experimentalConditions: Complete minus Cholesterol-free; […]
Structures can show the parent of a compound that is named as a salt. Numbered stars: 1 amine (or outer) side, 2 acyl side, 3 side chain; on linkers, the order of the positions; unused ones are H or OH. Bridge positions count the residues as written; N and C are the ends. Square brackets hold non-standard residues; d marks the D form. Peptide text beside a SMILES is read from it. * marks the point of attachment. pTerphenylCO(4''-OnC5H11) = CCCCCOc1ccc(-c2ccc(-c3ccc(C(=O)*)cc3)cc2)cc1; Orn(4R-OH,5R-OH) = O=C([C@H](C[C@@H](O)[C@@H](O)N[*:3])N[*:1])[*:2]; hTyr(3S-OH,4S-OH) = N[C@H](C(=O)O)[C@H](O)[C@@H](O)c1ccc(O)cc1; dPhe(4-NHCONH2) = NC(=O)Nc1ccc(C[C@@H](N)C(=O)O)cc1; Pro(3S-OH,4S-Me) = C[C@H]1CN[C@H](C(=O)O)[C@H]1O; Dihydroorotyl(S) = O=C1C[C@@H](C(=O)*)NC(=O)N1; dPhe(4-Cl) = N[C@H](Cc1ccc(Cl)cc1)C(=O)O; Phe(4-NH2) = Nc1ccc(C[C@H](N)C(=O)O)cc1; d2Nal = N[C@H](Cc1ccc2ccccc2c1)C(=O)O; Lys(iPr) = CC(C)NCCCC[C@H](N)C(=O)O; Hyp = O=C(O)[C@@H]1C[C@@H](O)CN1; d3Pal = N[C@H](Cc1cccnc1)C(=O)O
Difference listing for selected molecules.
API note: the answer field is a bare number with no unit suffix.

CCCCCOc1ccc(-c2ccc(-c3ccc(C(=O)N[C@H]4C[C@@H](O)[C@@H](O)NC(=O)[C@@H]5[C@@H](O)[C@@H](C)CN5C(=O)[C@H]([C@@H](C)O)NC(=O)[C@H]([C@H](O)[C@@H](O)c5ccc(O)cc5)NC(=O)[C@@H]5C[C@@H](O)CN5C(=O)[C@H]([C@@H](C)O)NC4=O)cc3)cc2)cc1 [Anidulafungin] ({pTerphenylCO(4''-OnC5H11)}-[Orn(4R-OH,5R-OH)]T[Hyp][hTyr(3S-OH,4S-OH)]T[Pro(3S-OH,4S-Me)]; lactam 1-C) : −0.23
CCN(CC)CCOC(=O)C(O)(c1ccccc1)c1ccccc1 [Benactyzine hydrochloride] : −0.51
COc1ccc(CCN(C)CCC[C@@](C#N)(c2ccc(OC)c(OC)c2)C(C)C)cc1OC.Cl [(S)-Verapamil (hydrochloride)] : −0.20
CC(C)C[C@@H](N)C(=O)N[C@H]1C(=O)N[C@@H](CC(N)=O)C(=O)N[C@H]2C(=O)N[C@H]3C(=O)N[C@H](C(=O)N[C@H](C(=O)O)c4cc(O)cc(O)c4-c4cc3ccc4O)[C@H](O)c3ccc(c(Cl)c3)Oc3cc2cc(c3O[C@@H]2O[C@H](CO)[C@@H](O)[C@H](O)[C@H]2O[C@H]2C[C@](C)(N)[C@H](O)[C@H](C)O2)Oc2ccc(cc2Cl)[C@H]1O.Cl [Norvancomycin (hydrochloride)] : −0.07
CC(=O)N[C@H](Cc1ccc2ccccc2c1)C(=O)N[C@H](Cc1ccc(Cl)cc1)C(=O)N[C@H](Cc1cccnc1)C(=O)N[C@@H](CO)C(=O)N[C@@H](Cc1ccc(NC(=O)[C@@H]2CC(=O)NC(=O)N2)cc1)C(=O)N[C@H](Cc1ccc(NC(N)=O)cc1)C(=O)N[C@@H](CC(C)C)C(=O)N[C@@H](CCCCNC(C)C)C(=O)N1CCC[C@H]1C(=O)N[C@H](C)C(N)=O [Degarelix] (Ac-[d2Nal][dPhe(4-Cl)][d3Pal]S[Phe(4-NH2)](Dihydroorotyl(S))[dPhe(4-NHCONH2)]L[Lys(iPr)]P[dA]-NH2) : −0.81

For Cc1cc(NS(=O)(=O)c2ccc(N)cc2)nc(C)n1 , what is its reported Difference? −0.21

For N#Cc1c(N2C[C@@H]3NCCO[C@H]3C2)c(F)cc2c(=O)c(C(=O)O)cn(C3CC3)c12 , what is its reported Difference? −0.22

For CCCCCCCCCCCCCCCC[n+]1ccccc1.[Cl-] [Cetylpyridinium (chloride)] , what is its reported Difference? −0.03
